Test system: MOLT-4 leukemia
Assay: NCI-60 one-dose screen, 48 h (100 = growth as untreated, 0 = no growth, -100 = all killed)
Conditions: 10 µM unless noted
Compounds without any hit were thinned out: in the full panel of roughly 83,000, 20% have a hit. Active and inactive are the calls of the source. How the source made its calls: active means growth percent below 10; inactive means the rest.
Here the recorded growth is given for each entry.

The following molecules have reported results that may help.
* COc1ccc(/C=C/C(=O)N2CCC(O)CC2)cc1OC1CCCC1 | 97.6% (inactive)
* c1ccc(-c2nc(N3CCOCC3)c3c4c(sc3n2)CCCCCC4)nc1 | 52.7% (inactive)
* COc1ccc(/C=C2\SC(=O)N(CN3CCN(c4cc5c(cc4F)c(=O)c(C(=O)O)cn5C4CC4)CC3)C2=O)cc1 | 116% (inactive)
* CC1(C)N=C(N)N=C(N)N1c1cccc(/C=C/C=C/c2cccc([N+](=O)[O-])c2)c1 | 45.5% (inactive)

Now let's try a different one.
// recorded growth for Cc1nc2cc(Nc3nc(Nc4ccc(F)cc4)nc(N4CCCC4)n3)ccc2n1Cc1ccccc1 : -30.7% (active)

----------
Test system: 786-0 renal
Assay: NCI-60 one-dose screen, 48 h (100 = growth as untreated, 0 = no growth, -100 = all killed)
Conditions: 10 µM unless noted
Experimental: Cells are grown in 96 well plates and exposed to the test compound for 48 hours. Compounds are tested at a single concentration, which is 10^-5 M for most compounds. The reported endpoint is percent growth (GI% or GIPRCNT), where numbers from 0 - 100% represent growth inhibition, and numbers from -100% - 0 represent cell death. For example, a value of 40 represents 60% growth inhibition. A value of 0 means no net growth occurred over the course of the experiment. […]
Compounds without any hit were thinned out: in the full panel of roughly 83,000, 20% have a hit.
Decide using growth alone. Strictly below 90%: satisfied. Equal to or above 90%: not satisfied.

* COc1cccc(OC(=O)c2ccccc2)c1OC(=O)c1ccccc1 | not satisfied
* CCCCCCCCCCCCSC1=CC(=O)C=CC1=O | not satisfied
* Cc1ccc2nc(NC(=O)CSC(=S)N3CCN(Cc4ccccc4)CC3)sc2c1 | satisfied
* O=C1/C(=C/c2ccc(Oc3ccccc3)cc2)N=C(c2ccccc2)N1CCc1cccs1 | satisfied

Check if growth falls below 90% for COc1ccc(Sc2ccc3[nH]c(=O)nc(N)c3c2)cc1 .
not satisfied

Check if growth falls below 90% for CN1CCC(OC2c3ccccc3CCc3ccccc32)CC1 .
not satisfied

Check if growth falls below 90% for Clc1ccc2c(N3CCN(c4ccnc(NC5CCCCC5)n4)CC3)ccnc2c1 .
satisfied

----------
System: OVCAR-3 ovarian
Assay: NCI-60 one-dose screen, 48 h
Settings: 10 µM unless noted
About 83,000 compounds went through this panel and 20% of them were active in at least one assay; those are over-represented in the sample as a whole. Activity calls are given as the source filed them. How the source made its calls: active means growth percent below 10; inactive means the rest.
Can you answer with just one of these options? active, inactive

As a guide, the following entries are already answered.
* c1ccc2c(c1)oc1cc3c(cc12)nnc1cccn13 | inactive
* COc1ccc(NC(=O)COc2ccccc2)c(C(N)=O)c1 | active
* COc1ccc(Cn2c(Br)c3c(c2-c2cc(OC)c(OC)c(OC)c2)CCc2sc(N)nc2-3)cc1 | active

Please share the test call associated with O=C(N/N=C/c1ccc(OC(F)F)c(OC2CCCC2)c1)c1cnn2c1NC(c1ccccc1)C2 (stereo not given) .
inactive

Please share the test call associated with COc1cc(CNCCCN2C(=O)c3ccc4c5c(ccc(c35)C2=O)C(=O)N(CCCNCc2cc(OC)c(OC)c(OC)c2)C4=O)cc(OC)c1OC .
active

----------
System: BT-549 breast
Assay: NCI-60 one-dose screen, 48 h (100 = growth as untreated, 0 = no growth, -100 = all killed)
Conditions: 10 µM unless noted
Procedure: Growth inhibition of the BT-549 human tumor cell line is measured as a screen for anti-cancer activity. Cells are grown in 96 well plates and exposed to the test compound for 48 hours. Compounds are tested at a single concentration, which is 10^-5 M for most compounds. The reported endpoint is percent growth (GI% or GIPRCNT), where numbers from 0 - 100% represent growth inhibition, and numbers from -100% - 0 represent cell death. For example, a value of 40 represents 60% growth inhibition. […]
The panel holds about 83,000 compounds, 20% with a hit somewhere; the sample as a whole holds those more often.
measured_property: growth (%)
Hi! Could you send only the number? It should be in %, unit omitted.

The following molecules have reported results that may help.
• CC(C)OC1=C(Cl)C(=O)c2ccccc2C1=O = 59.7
• c1ccc(-c2n(Cc3ccc4ccccc4c3)c3ccccc3[n+]2Cc2ccc3ccccc3c2)cc1 = -28.2
• CCCCC/C=C\C/C=C/CCCCCCCCNC(=O)Nc1ccc([N+](=O)[O-])cc1 = 109

// recorded growth for N#C/C(=C\c1ccc[nH]1)c1cc2ccccc2[nH]1 : 66.9

// recorded growth for O=C1c2cc(S(=O)(=O)O)ccc2C(=O)c2c1cccc2[N+](=O)[O-] : 98.3

// recorded growth for Cc1nn(-c2ccccc2)c2nc3nc4c(c(N)c3c(-c3ccc(Cl)cc3)c12)CCCC4 : 113

// recorded growth for COc1ccc(/C=C/C(=O)N2CCC(O)CC2)cc1OC1CCCC1 : 117

// recorded growth for CCOC(=O)C(CC(c1ccccc1)N1CCCCC1)[N+](=O)[O-] (stereo unspecified) : 94.8

// recorded growth for Nc1nc2c(s1)CCc1c-2c(Br)n(Cc2ccccc2)c1Br : 93.7

// recorded growth for CCOC(=O)c1c(-c2cc(OC)c(OC)c(OC)c2)csc1N : 117

// recorded growth for Cc1nc(NC(=O)COc2cccc(/C=C3\COc4ccccc4C3=O)c2)sc1C : -68.5

----------
Test system: SW-620 colon
Test: NCI-60 one-dose screen, 48 h (100 = growth as untreated, 0 = no growth, -100 = all killed)
Conditions: 10 µM unless noted
Compounds without any hit were thinned out: in the full panel of roughly 83,000, 20% have a hit.
Here the recorded growth is given for each entry.
Hi! Could you send only the number? It should be in %, unit omitted.

The following compounds have reported results that may help.
* CCCCCCCCCCCCCCNc1nc(CO)ncc1-c1ccc(C(F)(F)F)cc1 | 103
* Cc1nc2cc(Nc3nc(Cl)nc(Nc4ccc(F)cc4)n3)ccc2n1Cc1ccccc1 | 84.8

// recorded growth for COc1nc2c(cc1S(=O)(=O)c1ccccc1)CCc1c-2cnn1-c1ccccc1Cl : 79.1

// recorded growth for COc1cc(/C=C/C(=O)CC(=O)/C=C/c2cc(Br)c(OC)c(OC)c2)cc(Br)c1OC : 114

// recorded growth for Cc1cc(=O)[nH]n1-c1cc(Cl)ccc1N : 113

// recorded growth for CCOC(=O)c1sc(NC(=O)CN2CCC(Cc3ccccc3)CC2)nc1C : 95.8

// recorded growth for NC(=O)c1nc2c([nH]c1=O)CCCC2 : 101

// recorded growth for c1ccc(-c2n(Cc3ccc4ccccc4n3)c3ccccc3[n+]2Cc2ccc3ccccc3n2)cc1 : 2.87

// recorded growth for Clc1ccc(C2=Nc3cccc4cccc(c34)N2)cc1Cl : 99

// recorded growth for COc1ccc(OC)c(/C=C2\Oc3cc(O)ccc3C2=O)c1 : 92.2

// recorded growth for COc1ccc(S(=O)(=O)c2ccc(C(N)=O)cc2)cc1NC(=O)c1[nH]c(C)c2c1CCCCC2=O : 68.4

// recorded growth for O=C1CCC(N2C(=O)c3cccc(NCCOCCOCCNC(=O)c4cc5c(o4)C(=O)c4ccccc4C5=O)c3C2=O)C(=O)N1 (stereo not given) : -19.3

// recorded growth for COc1cccc(C2CC(=O)Nc3cc4c(cc32)OCO4)c1OC (stereo not given) : 105

// recorded growth for Cc1cccc2c(=O)c3c(sc12)c(NCCNCCO)nc1ccccc13 : -67

// recorded growth for ONc1nc(NO)c2[nH]cnc2n1 : 55

// recorded growth for NC(=O)c1cc(Cl)ccc1NC(=O)COc1ccccc1 : 35.3

// recorded growth for CCC(C)[C@H]1O[C@]2(CC[C@@H]1C)C[C@@H]1C[C@@H](C/C=C(\C)[C@@H](OC3C[C@H](OC)C(O[C@H]4C[C@H](OC)[C@@H](O)[C@H](C)O4)[C@H](C)O3)[C@@H](C)/C=C/C=C3\CO[C@@H]4[C@H](O)C(C)=C[C@@H](C(=O)O1)[C@]34O)O2 (stereo not given in full) : 18.5

// recorded growth for COc1ccc(/C=C2\SC(=O)N(CN3CCN(c4cc5c(cc4F)c(=O)c(C(=O)O)cn5C4CC4)CC3)C2=O)cc1 : 99.8

// recorded growth for O=C(NCc1ccc(F)cc1)C1CN(c2ccc(Cl)cc2)N(c2ccc(Cl)cc2)C1=O (stereo not given) : 36.7

// recorded growth for COc1c(O)c2c3c(c1OC)-c1ccccc1CC3N(S(=O)(=O)c1ccc(C)cc1)CC2 (stereo not given) : 30

// recorded growth for NC(=O)c1cccc(-n2ccc3cc(NC(=O)Nc4ccc(Cl)c(Cl)c4)ccc32)n1 : 94.2

// recorded growth for O=C(CCc1nnc2sc(-c3ccccc3)nn12)c1nc2ccccc2[nH]1 : 123

// recorded growth for Cc1ccc2c(c1)c(Sc1ccc(C(=O)NO)cc1)c1n2CN(C)CC1 : 7.66

// recorded growth for CCOC(=O)c1cn2c3c(cc(F)cc3c1=O)C(CC)c1ccccc1C2 (stereo not given) : 107

// recorded growth for COc1nc2c(cc1S(=O)(=O)c1ccccc1)CCc1c-2cnn1-c1ccccc1 : 89.9

// recorded growth for COC(=O)c1c2c(c(C)[n+]([O-])c1C)C(=O)C(NCc1ccc(O)cc1)=CC2=O : -3.33

// recorded growth for Cc1ccc(S(=O)(=O)N(c2ccc(Cl)cc2)c2ccc(Br)cc2C(=O)O)cc1 : 104

// recorded growth for O=C1N/C(=C\c2ccccc2)c2ncccc21 : 113

// recorded growth for C=C(C)COC(=O)c1ccccc1C(=O)OCC1(C)CO1 (stereo not given) : 105
